# target: Kv1.5 potassium channel (Homo sapiens)
# Sequence (P22460 whole entry): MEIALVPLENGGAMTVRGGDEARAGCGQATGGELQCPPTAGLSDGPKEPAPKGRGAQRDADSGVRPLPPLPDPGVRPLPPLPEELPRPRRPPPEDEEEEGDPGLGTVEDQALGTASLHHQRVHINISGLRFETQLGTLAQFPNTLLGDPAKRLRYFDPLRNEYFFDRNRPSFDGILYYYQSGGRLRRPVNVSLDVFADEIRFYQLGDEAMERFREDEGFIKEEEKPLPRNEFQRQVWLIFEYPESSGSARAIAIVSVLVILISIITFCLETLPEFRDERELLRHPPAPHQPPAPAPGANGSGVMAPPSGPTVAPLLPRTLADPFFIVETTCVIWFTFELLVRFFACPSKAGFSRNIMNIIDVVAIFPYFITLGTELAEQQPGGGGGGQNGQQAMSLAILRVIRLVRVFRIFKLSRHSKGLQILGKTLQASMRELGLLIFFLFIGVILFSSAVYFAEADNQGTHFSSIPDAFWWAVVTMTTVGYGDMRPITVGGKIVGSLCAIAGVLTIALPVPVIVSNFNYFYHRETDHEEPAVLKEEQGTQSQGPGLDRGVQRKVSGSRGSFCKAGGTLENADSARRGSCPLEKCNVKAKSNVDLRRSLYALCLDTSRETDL
# experimental-protocol: Electrophysiological studies: whole-cell patch clamp of Kv1.5 currents in CHO cells
# Type: cell-based
# condition-description: Chinese hamster ovary cells stably expressing Kv1.5, whole-cell voltage clamp, read-out: Peak current inhibition at 0.1 μM (%)
Entries and their inhibition at 0.1 µM values follow.
State the value with its unit after it.

Answered examples (4):
C[C@H](CC(=O)N(Cc1nccn1C)c1ccc2c(c1)[C@@H](NS(=O)(=O)c1ccc(F)c(Cl)c1)CCC2)c1ccccc1 [Example 3] | 84%
C[C@@H](CC(=O)N(Cc1nccn1C)c1ccc2c(c1)[C@H](NS(=O)(=O)c1cccc(F)c1)CCC2)c1ccc(F)cc1 [Example 26] | 52%
C[C@H](CC(=O)N(Cc1nccn1C)c1ccc2c(c1)[C@@H](NS(=O)(=O)c1ccccc1)CCC2)c1ccccc1 [Example 4] | 86%
C[C@@H](CC(=O)N(Cc1nccn1C)c1ccc2c(c1)[C@H](NS(=O)(=O)c1cccc(F)c1)CCC2)c1ccccc1 [Example 16] | 88%

inhibition at 0.1 µM reading for CC(CC(=O)N(Cc1nccn1C)c1ccc2c(c1)C(NS(=O)(=O)c1ccc(F)cc1)CCC2)c1ccccc1 (stereo not shown) [Example 1] : 42%

inhibition at 0.1 µM reading for C[C@@H](CC(=O)N(Cc1nccn1C)c1ccc2c(c1)[C@H](NS(=O)(=O)c1ccccc1)CCC2)c1ccccc1 [Example 11] : 76%

inhibition at 0.1 µM reading for C[C@@H](CC(=O)N(Cc1nccn1C)c1ccc2c(c1)[C@H](NS(=O)(=O)c1cccs1)CCC2)c1ccccc1 [Example 19] : 53%
